Values were extracted from paper PMC9467613.

- study.target: B7-H4 purified monomeric recombinant human protein (Homo sapiens, UniProt Q7Z7D3)
- Sequence (Q7Z7D3 25-259): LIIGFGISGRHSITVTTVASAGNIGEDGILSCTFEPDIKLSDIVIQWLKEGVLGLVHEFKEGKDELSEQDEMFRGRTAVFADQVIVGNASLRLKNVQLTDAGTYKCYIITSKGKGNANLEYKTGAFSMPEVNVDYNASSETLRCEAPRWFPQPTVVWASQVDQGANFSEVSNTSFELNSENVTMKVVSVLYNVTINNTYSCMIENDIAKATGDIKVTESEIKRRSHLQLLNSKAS
- assay.info: SPR
Catalogue of pKd readings, one per entry.
Note on units: pKd is unitless, being -log10 of a concentration expressed in mol/L.

Check out these entries, answers already filled in.
B10 (scFv, V domains shown) VH: EVQLVESGGGVVQPGRSLRLSCAASGFTFSTRAMNWVRQAPGKGLEWVSAISGTGDTTYYADSVKGRFTISRDNSKNTLYLQMNSLRAEDTAVYYCARKRWYGMDVWGQGTTVTVSS VL: SYELTQPPSVSVAPGKTARITCGGNNIGSKSVHWYQQKPGQAPVLVVYDDSDRPSGIPERFSGSNSGNTATLTISRVEAGDEADYYCQVWGRYQMIFGTGTKLTVL; 9.94
B03 (scFv, V domains shown) VH: EVQLVESGGGVVQPGRSLRLSCAASGFTFGDRAMNWVRQAPGKGLEWVSAISGSGSGTYYADSVKGRFTISRDNSKNTLYLQMNSLRAEDTAVYYCARKRWYGMDVWGQGTTVTVSS VL: SYELTQPPSVSVAPGKTARITCGGNNIGMKSVHWYQQKPGQAPVLVVYDDSDRPSGIPERFSGSNSGNTATLTISRVEAGDEADYYCQVWDRGMIFGTGTKLTVL; 10.15
B07 (scFv, V domains shown) VH: EVQLVESGGGVVQPGRSLRLSCAASGFTFGDRAMNWVRQAPGKGLEWVSAISGSGATTYYADSVKGRFTISRDNSKNTLYLQMNSLRAEDTAVYYCARKRWYGMDVWGQGTTVTVSS VL: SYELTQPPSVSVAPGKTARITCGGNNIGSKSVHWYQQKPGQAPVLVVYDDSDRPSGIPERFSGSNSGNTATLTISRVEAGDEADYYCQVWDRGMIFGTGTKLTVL; 10.27
A09 (scFv, V domains shown) VH: EVQLVESGGGVVQPGRSLRLSCAASGFTFSSRSMNWVRQAPGKGLEWVSAISGSGLTSYYADSVKGRFTISRDNSKNTLYLQMNSLRAEDTAVYYCARKRWYGMDVWGQGTTVTVSS VL: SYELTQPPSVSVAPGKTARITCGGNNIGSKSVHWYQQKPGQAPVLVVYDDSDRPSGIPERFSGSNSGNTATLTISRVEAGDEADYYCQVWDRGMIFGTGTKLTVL; 10.13

Alright, here's another binder for you.
query: For A01 (scFv, V domains shown) VH: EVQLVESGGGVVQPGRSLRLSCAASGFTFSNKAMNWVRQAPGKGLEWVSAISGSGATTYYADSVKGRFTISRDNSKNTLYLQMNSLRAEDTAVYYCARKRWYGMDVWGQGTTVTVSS VL: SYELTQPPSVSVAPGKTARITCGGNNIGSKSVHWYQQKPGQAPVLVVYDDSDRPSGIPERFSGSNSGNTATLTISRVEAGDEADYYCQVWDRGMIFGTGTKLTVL , what is its reported pKd?
result: 9.65
